Target: SHV-1 β-lactamase (Klebsiella pneumoniae, UniProt P0AD64)
Experiment: biochemical
attribute_measured: pKi
pKi here: minus log base 10 of the concentration, concentration in moles per litre.

Query: Bench note: what pKi did C[C@@H](O)[C@H]1C(=O)N2C(C(=O)O)=C(S[C@@H]3CN[C@H](C(=O)N(C)C)C3)[C@H](C)[C@H]12 show?
Reply: 4.51

====

Molecular target: SHV Asn276Asp β-lactamase (Klebsiella pneumoniae, UniProt P0AD64, N270D)
Test: Steady-state substrate hydrolysis kinetics, Asn276Asp
Format: biochemical
attribute_measured: kcat (s⁻¹)
Write down the numeric answer in s⁻¹ and omit the unit.

Worked cases, answers included:
compound_structure_string	kcat (s⁻¹)
O=C(Cc1cccs1)N[C@@H]1C(=O)N2C(C(=O)O)=C(/C=C/c3ccc([N+](=O)[O-])cc3[N+](=O)[O-])CS[C@H]12	137
CCN1CCN(C(=O)N[C@@H](C(=O)N[C@@H]2C(=O)N3[C@@H]2SC(C)(C)[C@@H]3C(=O)O)c2ccccc2)C(=O)C1=O	976
CC(=O)OCC1=C(C(=O)O)N2C(=O)[C@@H](NC(=O)Cc3cccs3)[C@H]2SC1	10

Switching to the query record.
Query: Need kcat of CC1(C)S[C@@H]2[C@H](NC(=O)[C@H](N)c3ccccc3)C(=O)N2[C@H]1C(=O)O , thanks.
Reply: 989
